Tested on: anaesthesized rats
Assay: wheal test, intradermal injection
Type: in vivo, rat
Settings: 10 ug peptide intradermally
Starred links: 1 amine or outer side, 2 acyl side, 3 side chain; linkers in the order of their positions; H or OH if unused. Non-standard residues stand in square brackets, D forms with d. Residues, ends and D or L forms follow the SMILES beside them. *: point of attachment. dAla(cis-4-NHCOPyz-cHex) = N[C@H](C[C@H]1CC[C@@H](NC(=O)c2cnccn2)CC1)C(=O)O; X1 = O=C(N[C@H]1CC[C@@H](C[C@@H](N[*:1])C(=O)[*:2])CC1)c1ccccn1; X4 = O=C(N[C@H]1CC[C@@H](C[C@@H](N[*:1])C(=O)[*:2])CC1)c1cccnc1; X8 = O=C(N[C@H]1CC[C@@H](C[C@@H](N[*:1])C(=O)[*:2])CC1)c1ccncn1; dPhe(3,4-Cl2) = N[C@H](Cc1ccc(Cl)c(Cl)c1)C(=O)O; dPhe(4-Cl) = N[C@H](Cc1ccc(Cl)cc1)C(=O)O; d2Nal = N[C@H](Cc1ccc2ccccc2c1)C(=O)O; Lys(iPr) = CC(C)NCCCC[C@H](N)C(=O)O; Benzoyl(4-OH) = O=C(c1ccc(O)cc1)*; d3Pal = N[C@H](Cc1cccnc1)C(=O)O; Nicotinoyl = O=C(c1cccnc1)*; Picolinoyl = O=C(c1ccccn1)*; Nle = CCCC[C@H](N)C(=O)O; Abu = CC[C@H](N)C(=O)O
Could you please report measured Wheal Area for the items listed next?
Give just the number in mm^2 /10 μg; leave the unit off.

Inquiry: Item under review: CCCC[C@H](NC(=O)[C@@H](CCCCNC(=O)c1ccccn1)NC(=O)[C@H](CCCCNC(=O)c1ccccn1)NC(=O)[C@H](CO)NC(=O)[C@@H](Cc1cccnc1)NC(=O)[C@@H](Cc1ccc(Cl)cc1)NC(=O)[C@@H](Cc1ccc2ccccc2c1)NC(C)=O)C(=O)N[C@@H](CCCCNC(C)C)C(=O)N1CCC[C@H]1C(=O)N[C@H](C)C(N)=O [compound 25988] (Ac-[d2Nal][dPhe(4-Cl)][d3Pal]SK(Picolinoyl)[dK](Picolinoyl)[Nle][Lys(iPr)]P[dA]-NH2) . Reported Wheal Area?
Reply text: 107.0

Inquiry: Item under review: CC(=O)N[C@H](Cc1ccc(Cl)c(Cl)c1)C(=O)N[C@H](Cc1ccc(Cl)cc1)C(=O)N[C@H](Cc1cccnc1)C(=O)N[C@@H](CO)C(=O)N[C@@H](CCCCNC(=O)c1ccccn1)C(=O)N[C@H](CCCCNC(=O)c1ccccn1)C(=O)N[C@@H](CC(C)C)C(=O)N[C@@H](CCCCNC(C)C)C(=O)N1CCC[C@H]1C(=O)N[C@H](C)C(N)=O [compound 26100] (Ac-[dPhe(3,4-Cl2)][dPhe(4-Cl)][d3Pal]SK(Picolinoyl)[dK](Picolinoyl)L[Lys(iPr)]P[dA]-NH2) . Reported Wheal Area?
Reply text: 116.2

Inquiry: Item under review: CC(=O)N[C@H](Cc1ccc2ccccc2c1)C(=O)N[C@H](Cc1ccc(Cl)cc1)C(=O)N[C@H](Cc1cccnc1)C(=O)N[C@@H](CO)C(=O)N[C@@H](CCCCNC(=O)c1cccnc1)C(=O)N[C@H](C[C@H]1CC[C@@H](NC(=O)c2cccnc2)CC1)C(=O)N[C@@H](CC(C)C)C(=O)N[C@@H](CCCCNC(C)C)C(=O)N1CCC[C@H]1C(=O)N[C@H](C)C(N)=O [IBR 25648] (Ac-[d2Nal][dPhe(4-Cl)][d3Pal]SK(Nicotinoyl)[X4]L[Lys(iPr)]P[dA]-NH2) . Reported Wheal Area?
Reply text: 101.8

Inquiry: Item under review: CC(=O)N[C@H](Cc1ccc2ccccc2c1)C(=O)N[C@H](Cc1ccc(Cl)cc1)C(=O)N[C@H](Cc1cccnc1)C(=O)N[C@@H](CO)C(=O)N[C@@H](CCCCNC(=O)c1ccccn1)C(=O)N[C@H](C[C@H]1CC[C@@H](NC(=O)c2cnccn2)CC1)C(=O)N[C@@H](CC(C)C)C(=O)N[C@@H](CCCCNC(C)C)C(=O)N1CCC[C@H]1C(=O)N[C@H](CO)C(N)=O [compound 26348] (Ac-[d2Nal][dPhe(4-Cl)][d3Pal]SK(Picolinoyl)[dAla(cis-4-NHCOPyz-cHex)]L[Lys(iPr)]P[dS]-NH2) . Reported Wheal Area?
Reply text: 122.8

Inquiry: Item under review: CC(=O)N[C@H](Cc1ccc2ccccc2c1)C(=O)N[C@H](Cc1ccc(Cl)cc1)C(=O)N[C@H](Cc1cccnc1)C(=O)N[C@@H](CO)C(=O)N[C@@H](CCCCNC(=O)c1ccccn1)C(=O)N[C@H](CCCCNC(=O)c1ccccn1)C(=O)N[C@H](C(=O)N[C@@H](CCCCNC(C)C)C(=O)N1CCC[C@H]1C(=O)N[C@H](C)C(N)=O)C(C)C [compound 25934] (Ac-[d2Nal][dPhe(4-Cl)][d3Pal]SK(Picolinoyl)[dK](Picolinoyl)V[Lys(iPr)]P[dA]-NH2) . Reported Wheal Area?
Reply text: 97.9

Inquiry: Item under review: CC(=O)N[C@H](Cc1ccc2ccccc2c1)C(=O)N[C@H](Cc1ccc(Cl)cc1)C(=O)N[C@H](Cc1cccnc1)C(=O)N[C@@H](CO)C(=O)N[C@@H](CCCCNC(=O)c1ccccn1)C(=O)N[C@H](C[C@H]1CC[C@@H](NC(=O)c2ccccn2)CC1)C(=O)N[C@@H](CC(C)C)C(=O)N[C@@H](CCCCNC(C)C)C(=O)N1CCC[C@H]1C(=O)N[C@H](C)C(N)=O [IV-4] (Ac-[d2Nal][dPhe(4-Cl)][d3Pal]SK(Picolinoyl)[X1]L[Lys(iPr)]P[dA]-NH2) . Reported Wheal Area?
Reply text: 123.0

Inquiry: Item under review: CC(=O)N[C@H](Cc1ccc2ccccc2c1)C(=O)N[C@H](Cc1ccc(Cl)cc1)C(=O)N[C@H](Cc1cccnc1)C(=O)N[C@@H](CO)C(=O)N[C@@H](CCCCNC(=O)c1ccccn1)C(=O)N[C@H](C[C@H]1CC[C@@H](NC(=O)c2cnccn2)CC1)C(=O)N[C@H](C(=O)N[C@@H](CCCCNC(C)C)C(=O)N1CCC[C@H]1C(=O)N[C@H](C)C(N)=O)C(C)C [compound 26325] (Ac-[d2Nal][dPhe(4-Cl)][d3Pal]SK(Picolinoyl)[dAla(cis-4-NHCOPyz-cHex)]V[Lys(iPr)]P[dA]-NH2) . Reported Wheal Area?
Reply text: 127.8

Inquiry: Item under review: CC(=O)N[C@H](Cc1ccc2ccccc2c1)C(=O)N[C@H](Cc1ccc(Cl)cc1)C(=O)N[C@H](Cc1cccnc1)C(=O)N[C@@H](CO)C(=O)N[C@@H](CCCCNC(=O)c1ccccn1)C(=O)N[C@H](C[C@H]1CC[C@@H](NC(=O)c2ccncn2)CC1)C(=O)N[C@@H](CC(C)C)C(=O)N[C@@H](CCCCNC(C)C)C(=O)N1CCC[C@H]1C(=O)N[C@H](C)C(N)=O [compound 26323] (Ac-[d2Nal][dPhe(4-Cl)][d3Pal]SK(Picolinoyl)[X8]L[Lys(iPr)]P[dA]-NH2) . Reported Wheal Area?
Reply text: 120.4

Inquiry: Item under review: CC[C@H](NC(=O)[C@@H](CCCCNC(=O)c1ccccn1)NC(=O)[C@H](CCCCNC(=O)c1ccc(O)cc1)NC(=O)[C@H](CO)NC(=O)[C@@H](Cc1cccnc1)NC(=O)[C@@H](Cc1ccc(Cl)cc1)NC(=O)[C@@H](Cc1ccc2ccccc2c1)NC(C)=O)C(=O)N[C@@H](CCCCNC(C)C)C(=O)N1CCC[C@H]1C(=O)N[C@H](C)C(N)=O [compound 26381] (Ac-[d2Nal][dPhe(4-Cl)][d3Pal]SK(Benzoyl(4-OH))[dK](Picolinoyl)[Abu][Lys(iPr)]P[dA]-NH2) . Reported Wheal Area?
Reply text: 95.1

Inquiry: Item under review: CC(=O)N[C@H](Cc1ccc2ccccc2c1)C(=O)N[C@H](Cc1ccc(Cl)cc1)C(=O)N[C@H](Cc1cccnc1)C(=O)N[C@@H](CO)C(=O)N[C@@H](CCCCNC(=O)c1ccccn1)C(=O)N[C@H](C[C@H]1CC[C@@H](NC(=O)c2cnccn2)CC1)C(=O)N[C@@H](CC(C)C)C(=O)N[C@@H](CCCNC(=N)N)C(=O)N1CCC[C@H]1C(=O)N[C@H](C)C(N)=O [compound 26347] (Ac-[d2Nal][dPhe(4-Cl)][d3Pal]SK(Picolinoyl)[dAla(cis-4-NHCOPyz-cHex)]LRP[dA]-NH2) . Reported Wheal Area?
Reply text: 119.6
